Conditions: in 2-butanone, 318.15 K
Readout kind: solubility (mole fraction)
Reply: number alone, nothing else.

Query string: Entry under review: O=C(N[C@H](Cc1ccccc1)C(=O)O)OCC1c2ccccc2-c2ccccc21 . Reported solubility (mole fraction)?
Result string: 0.015

----------
Conditions: in n-propyl acetate, 308.15 K
Readout kind: solubility (mole fraction)
Reply: number alone, nothing else.

Query string: Entry under review: O=C(N[C@H](Cc1ccccc1)C(=O)O)OCC1c2ccccc2-c2ccccc21 . Reported solubility (mole fraction)?
Result string: 0.00405

----------
Settings: in ethyl acetate, 303.15 K
Readout kind: solubility (mole fraction)
Reply: number alone, nothing else.

Query string: Entry under review: O=C(N[C@H](Cc1ccccc1)C(=O)O)OCC1c2ccccc2-c2ccccc21 . Reported solubility (mole fraction)?
Result string: 0.00443

----------
Details: in n-propyl acetate, 283.15 K
Readout kind: solubility (mole fraction)

Query string: Entry under review: O=C(N[C@H](Cc1ccccc1)C(=O)O)OCC1c2ccccc2-c2ccccc21 . Reported solubility (mole fraction)?
Result string: 0.0023

Data provenance is BigSolDB 2.1.
